For each of the compounds below, state its solubility in H2 O.
Assay Remarks: Determination of solubility in phosphate buffer (UV absorbance)
Format: physicochemical
Condition Context: phosphate buffer (0.10M), agitated 20 h
Express the result in µg/mL but write the number alone.

Prompt: // solubility in H2 O lookup, key: COC(=O)[C@H](C)NP(=O)(C[C@H]1O[C@@H](n2cc(C)c(=O)[nH]c2=O)C[C@@H]1F)O[C@H]1C[C@H](n2cc(C)c(=O)[nH]c2=O)O[C@@H]1CO (stereo partly shown) [Compound IX]
Completion: 8790

Prompt: // solubility in H2 O lookup, key: Cc1cn([C@H]2C[C@H](F)[C@@H](CP(=O)(O)O)O2)c(=O)[nH]c1=O [Compound V]
Completion: 12260

Prompt: // solubility in H2 O lookup, key: Cc1cn([C@H]2C[C@H](N=[N+]=[N-])[C@@H](CP(=O)(O)O[C@H]3C[C@H](n4cc(C)c(=O)[nH]c4=O)O[C@@H]3CO)O2)c(=O)[nH]c1=O [VIII]
Completion: 3240

Prompt: // solubility in H2 O lookup, key: Cc1cn([C@H]2C[C@H](OP(=O)(O)C[C@H]3O[C@@H](n4cc(C)c(=O)[nH]c4=O)C[C@@H]3F)[C@@H](CO)O2)c(=O)[nH]c1=O [Compound VII]
Completion: 3980

Prompt: // solubility in H2 O lookup, key: COC(=O)[C@@H](C)NP(=O)(C[C@H]1O[C@@H](n2cc(C)c(=O)[nH]c2=O)C[C@@H]1F)O[C@H]1C[C@H](n2cc(C)c(=O)[nH]c2=O)O[C@@H]1CO (stereo partly shown) [Compound XI]
Completion: 8920

Prompt: // solubility in H2 O lookup, key: COC(=O)[C@@H](C)NP(=O)(C[C@H]1O[C@@H](n2cc(C)c(=O)[nH]c2=O)C[C@@H]1N=[N+]=[N-])O[C@H]1C[C@H](n2cc(C)c(=O)[nH]c2=O)O[C@@H]1CO (stereo partly shown) [Compound XII]
Completion: 9200

Prompt: // solubility in H2 O lookup, key: COC(=O)[C@H](C)NP(=O)(C[C@H]1O[C@@H](n2cc(C)c(=O)[nH]c2=O)C[C@@H]1N=[N+]=[N-])O[C@H]1C[C@H](n2cc(C)c(=O)[nH]c2=O)O[C@@H]1CO (stereo partly shown) [Compound X]
Completion: 9130
